Provenance of the data: patent US20120183580A1

Experiment: acute high dose toxicity
Type: in vivo, mice
Settings: mouse, in vivo; intravenous, mice
Where a SMILES comes first, the peptide text is derived from it.

| compound | LD50 at 2 weeks |
| --- | --- |
| C[C@@H](O)[C@H](NC(=O)[C@@H]1CCCN1C(=O)[C@H](Cc1ccccc1)NC(=O)[C@@H]1CCCN1C(=O)[C@@H](N)CC(N)=O)C(=O)N[C@@H](Cc1c[nH]c2ccccc12)C(=O)N[C@@H](CCCNC(=N)N)C(=O)N[C@@H](CCCCN)C(=O)N[C@@H](CCCNC(=N)N)C(=O)N1CCC[C@H]1C(=O)NCC(=O)O [the peptide, NPFPTWRKRPG] (H-NPFPTWRKRPG-OH; N-terminus and C-terminus assumed) | ~125 mg/kg |
